The reported measurements were obtained from patent US20260062426A1.

# assayed.system: CCNE1 (Homo sapiens, UniProt P24864+P24941)
# Construct: host or cells: HEK293
# procedure.details: CCNE1 HIBIT PQ (protein quantification), degradation
# Format: cell-based
# cond: Max = Maximum
Consider the following partition of reported CCNE1 HIBIT PQ Max (%) into named classes: L: < 60%; M: ≥ 60% and < 80%; H: ≥ 80%

compound	label.value
CC(C)Oc1c(-c2cn[nH]c2)ncn2nc(Nc3ccc(S(=O)(=O)N(C)CCCN4CCN(c5ccc6c(c5)n(C)c(=O)n6C5CCC(=O)NC5=O)CC4)cc3F)nc12 (stereo not shown)	M
CC(C)Oc1c(-c2cn[nH]c2)ncn2nc(NC3CCN(S(=O)(=O)c4cccc(CN5CCN(c6cc7c(cc6F)C(=O)N(C6CCC(=O)NC6=O)C7)CC5)c4)CC3)nc12 (racemic)	M
CC(C)Oc1c(-c2cn[nH]c2)ncn2nc(Nc3ccc(S(=O)(=O)c4cccc(CN5CCN(c6ccc7c(N8CCC(=O)NC8=O)nn(C)c7c6)C6CC65)c4)cc3F)nc12 (stereo not shown)	L
CC(C)Oc1c(-c2cn[nH]c2)ncn2nc(Nc3ccc(S(=O)(=O)N(C)CCCN4CCN(c5cccc6c5n(C)c(=O)n6C5CCC(=O)NC5=O)CC4)cc3F)nc12 (racemic)	H
CC(C)Oc1c(-c2cn[nH]c2)ncn2nc(Nc3ccc(S(=O)(=O)N(C)CCCN4CCC(c5cccc6c(N7CCC(=O)NC7=O)nn(C)c56)CC4)cc3F)nc12	H
CC(C)Oc1c(-c2cn[nH]c2)ncn2nc(Nc3ccc(S(=O)(=O)c4cccc(C[C@H]5C[C@H](c6ccc7c(c6)CN([C@@H]6CCC(=O)NC6=O)C7=O)C5)c4)cc3F)nc12 (stereo in doubt)	H
CC(C)Oc1c(-c2cn[nH]c2)ncn2nc(NC3CCN(S(=O)(=O)N(C)CCCN4CCC(c5cccc6c5n(C)c(=O)n6C5CCC(=O)NC5=O)CC4)CC3)nc12 (racemic)	H
CC(C)Oc1c(-c2cn[nH]c2)ncn2nc(Nc3ccc(S(=O)(=O)N4CC5(CCCN(CCOc6cccc7c6n(C)c(=O)n7C6CCC(=O)NC6=O)C5)C4)cc3F)nc12 (stereo not shown)	L
CC(C)Oc1c(-c2cn[nH]c2)ncn2nc(Nc3ccc(S(=O)(=O)N4CCC[C@H](CN5CC[C@@H](c6ccc7c(N8CCC(=O)NC8=O)nn(C)c7c6)CC5(C)C)C4)cc3F)nc12 (single isomer, unassigned) [Compound 96]	M
CC(C)Oc1c(-c2cn[nH]c2)ncn2nc(N[C@H]3CCN(S(=O)(=O)c4cccc(CN5CCC(c6ccc7c(N8CCC(=O)NC8=O)nn(C)c7c6)CC5)c4)C[C@H]3C)nc12	H
CC(C)Oc1c(-c2cn[nH]c2)ncn2nc(N[C@H]3CCN(S(=O)(=O)c4cccc(CN5CCN(c6ccc7c(N8CCC(=O)NC8=O)nn(C)c7c6)CC5C)c4)C[C@H]3C)nc12 (stereo partly shown)	H
CC(C)Oc1c(-c2cn[nH]c2)ncn2nc(Nc3ccc(S(=O)(=O)N4CCC5(CCN(C6CCN(c7ccc8c(c7)n(C)c(=O)n8C7CCC(=O)NC7=O)CC6)C5)C4)cc3F)nc12 (stereo not shown)	M
CC(C)Oc1c(-c2cn[nH]c2)ncn2nc(NC3CCN(S(=O)(=O)c4cccc(CN5CC6(C5)CN(c5ccc7c(c5)CN(C5CCC(=O)NC5=O)C7=O)C6)c4)CC3)nc12 (racemic)	L
CC(C)Oc1c(-c2cn[nH]c2)ncn2nc(NC3CCN(S(=O)(=O)c4cccc(CN5CCC(c6ccc7c(N8CCC(=O)NC8=O)nn(C)c7c6)CC5)c4)CC3)nc12	H
CC(C)Oc1c(-c2cn[nH]c2)ncn2nc(Nc3ccc(S(=O)(=O)c4cccc(CN5CCN(c6ccc7c(N8CCC(=O)NC8=O)nn(C)c7c6)C(C)C5)c4)cc3F)nc12 (racemic)	L
